Assay: pKa of carvedilol free base
Assay type: physicochemical
outcomeMeasure: pKa
Answer field: number only, no words.

# pKa of COc1ccccc1OCCNCC(O)COc1cccc2[nH]c3ccccc3c12 (stereo not shown) = 7.6

---

Assay: physchem
Conditions: 25 °C, water, thermodynamic from solid
outcomeMeasure: solubility at 24 hr (µg/mL)
Give just the number in µg/mL; leave the unit off.

# solubility at 24 hr of COc1ccccc1OCCNCC(O)COc1cccc2[nH]c3ccccc3c12 (stereo not shown) [Carvedilol] = 11.6

---

Assay: physchem
Settings: pH 4, aqueous buffer
outcomeMeasure: solubility

# solubility of COc1ccccc1OCCNCC(O)COc1cccc2[nH]c3ccccc3c12 (stereo not shown) [Carvedilol] = ~200 µg/mL
